# Tested on: HepG2
# assay.remarks: Cytotoxicity against human HepG2 cells assessed as cell growth inhibition at 3.125 to 100 uM incubated for 72 hrs and measured after 2 hrs by microplate reader based WST-1 assay relative to control
# Assay type: functional
measurement.kind: growth inhibition (GI)

Q. For Clc1ccc(COC(c2cccs2)c2cc3ccccc3nc2Cl)cc1 (stereo not given) , what is its reported growth inhibition (GI)?
A. <10%

Q. For Cc1ccc(-n2cc(COC(c3cccs3)c3cc4ccccc4nc3Cl)nn2)cc1 (stereo not given) , what is its reported growth inhibition (GI)?
A. 18.78%

Q. For O=[N+]([O-])c1ccc(-n2cc(COC(c3cccs3)c3cc4ccccc4nc3Cl)nn2)cc1 (stereo not given) , what is its reported growth inhibition (GI)?
A. <10%

Q. For FC(F)(F)c1ccc(-n2cc(COC(c3cccs3)c3cc4ccccc4nc3Cl)nn2)cc1 (stereo not given) , what is its reported growth inhibition (GI)?
A. <10%

Q. For COc1ccc(-n2cc(COC(c3cccs3)c3cc4ccccc4nc3Cl)nn2)cc1 (stereo not given) , what is its reported growth inhibition (GI)?
A. <10%
